# Lookup of reported pIC50 keyed by entry
- Test system: TNFα release from human monocytes
- assayMethodText: TNFα release inhibition in LPS-stimulated monocytes
- Assay type: cell-based
- statedConditions: Monocyte, LPS 1 ng/ml, 16 hours, ELISA
pIC50: −log10 of the molar value.
measuredProperty: pIC50

molecularString: COc1ccc2c(Cc3c(Cl)cncc3Cl)nnc(N3CCOCC3)c2c1
targetOrTestSystem: TNFα release from human monocytes
recordedResult: 7.21
//
molecularString: COc1ccc2c(c1)CN(C(C)=O)N=C2Cc1c(Cl)cncc1Cl
targetOrTestSystem: TNFα release from human monocytes
recordedResult: 7.32
//
molecularString: COc1ccc2c(Cc3c(Cl)cncc3Cl)nnc(-n3cncn3)c2c1
targetOrTestSystem: TNFα release from human monocytes
recordedResult: 7.14
//
molecularString: COc1ccc2c(Cc3c(Cl)cncc3Cl)nnc(N3CCCC3)c2c1
targetOrTestSystem: TNFα release from human monocytes
recordedResult: 8.04
//
molecularString: COc1ccc2c(Cc3c(Cl)cncc3Cl)nnc(CN3CCOCC3)c2c1
targetOrTestSystem: TNFα release from human monocytes
recordedResult: 6.59
//
molecularString: COc1ccc2c(Cc3c(Cl)cncc3Cl)nnc(-c3ccccc3)c2c1
targetOrTestSystem: TNFα release from human monocytes
recordedResult: 7.34

* * *

- targetOrTestSystem: PDE 5 (Homo sapiens)
- Construct: The fractions containing the enzymatic activities (PDE 3 or PDE 5) were pooled; from tissue; host or cells: human platelets from platelet rich plasma of healthy volunteers
- assayMethodText: PDE 5 enzyme inhibition (SPA)
- Assay type: biochemical
- statedConditions: 10^−6 M; PDE 5 from human platelets; cGMP
measuredProperty: inhibition at 1 µM (%)

compound: COc1ccc2c(Cc3c(Cl)cncc3Cl)nnc(CN3CCOCC3)c2c1 [Compound 56]
recordedResult: 14
--
compound: COc1ccc2c(Cc3c(Cl)cncc3Cl)nnc(-c3nccs3)c2c1 [Compound 26]
recordedResult: 0
--
compound: C#Cc1nnc(Cc2c(Cl)cncc2Cl)c2ccc(OC)cc12 [Compound 60]
recordedResult: 1
--
compound: COc1ccc2c(Cc3c(Cl)cncc3Cl)nnc(C#Cc3ccccc3)c2c1 [Compound 27]
recordedResult: 9
--
compound: COc1ccc2c(Cc3c(Cl)cncc3Cl)nn(CCCCCc3ccccc3)c(=O)c2c1 [Compound 23]
recordedResult: 21
--
compound: FC(F)Oc1ccc2c(Cc3c(Cl)cncc3Cl)nnc(-n3cncn3)c2c1 [Compound 54]
recordedResult: 33
--
compound: CCn1nc(Cc2c(Cl)cncc2Cl)c2ccc(OC)cc2c1=O [Compound 20]
recordedResult: 11
--
compound: COc1ccc2c(Cc3c(Cl)cncc3Cl)nnc(N3CCOCC3)c2c1 [Compound 38]
recordedResult: 1
--
compound: CNC(=O)N1Cc2cc(OC)ccc2C(Cc2c(Cl)cncc2Cl)=N1 [Compound 17]
recordedResult: 21
--
compound: COc1ccc2c(c1)CN(S(C)(=O)=O)N=C2Cc1c(Cl)cncc1Cl [Compound 15]
recordedResult: 0
--
compound: COc1ccc2c(Cc3c(Cl)cncc3Cl)nnc(-n3cncn3)c2c1 [Compound 29]
recordedResult: 1
--
compound: COc1ccc2c(Cc3c(Cl)cncc3Cl)nn(CCc3ccccc3)c(=O)c2c1 [Compound 22]
recordedResult: 8
--
compound: COc1ccc2c(Cc3c(Cl)cncc3Cl)nnc(N3CCCC3)c2c1 [Compound 49]
recordedResult: 10
--
compound: COc1ccc2c(c1)CN(C(=O)C(C)C)N=C2Cc1c(Cl)cncc1Cl [Compound 11]
recordedResult: 10
--
compound: COc1ccc2c(Cc3c(Cl)cncc3Cl)nnc(-c3ccccc3)c2c1 [Compound 5]
recordedResult: 21
--
compound: COc1ccc2c(c1)CN(C(C)=O)N=C2Cc1c(Cl)cncc1Cl [Compound 8]
recordedResult: 35

* * *

Below: a set of entries, each annotated with reported pIC50.
- targetOrTestSystem: PDE 4
- assayMethodText: PDE 4 enzyme inhibition (SPA)
- statedConditions: PDE 4 purified from human PMNs; cAMP 1 μM
- Procedure: a) Human Polymorphonuclear Leukocyte Isolation The polymorphonuclear leukocytes (PMNs) were isolated from peripheral blood of healthy volunteers according to Boyum A. (Scand. J. Immunol., 1976, 5th suppl., 9). […] The enzyme activity was evaluated with a Scintillation Proximity Assay (SPA) kit (Amersham). […] SPA beads (50 μl) containing 18 mM zinc sulphate were added to stop the reaction and after 20 minutes at room temperature the radioactivity was measured using a scintillation counter. […]
pIC50: −log10 of the molar value.
measuredProperty: pIC50

molecularString: C#Cc1nnc(Cc2c(Cl)cncc2Cl)c2ccc(OC)cc12
measuredProperty: pIC50
recordedResult: 7.03

molecularString: COc1ccc2c(Cc3c(Cl)cncc3Cl)nn(CCCCCc3ccccc3)c(=O)c2c1
measuredProperty: pIC50
recordedResult: 6.68

molecularString: COc1ccc2c(c1)CN(C(=O)Cc1ccccc1)N=C2Cc1c(Cl)cncc1Cl
measuredProperty: pIC50
recordedResult: 7.92

molecularString: COc1ccc2c(Cc3c(Cl)cncc3Cl)nncc2c1C=CCCCc1ccccc1
measuredProperty: pIC50
recordedResult: 7.72

molecularString: COc1ccc2c(c1)CN(S(C)(=O)=O)N=C2Cc1c(Cl)cncc1Cl
measuredProperty: pIC50
recordedResult: 7.68

molecularString: COc1ccc2c(Cc3c(Cl)cncc3Cl)nncc2c1C#CCCCc1ccccc1
measuredProperty: pIC50
recordedResult: 8.00

molecularString: COc1ccc2c(Cc3c(Cl)cncc3Cl)nnc(C#Cc3ccccc3)c2c1
measuredProperty: pIC50
recordedResult: 7.32

molecularString: COc1ccc2c(Cc3c(Cl)cncc3Cl)nnc(N3CCOCC3)c2c1
measuredProperty: pIC50
recordedResult: 6.88

* * *

Let's look at some compounds and their measured pIC50.
- targetOrTestSystem: PDE 4
- assayMethodText: PDE 4 enzyme inhibition (SPA)
- statedConditions: PDE 4 purified from human PMNs; cAMP 1 μM
pIC50: −log10 of the molar value. Where a name gives a salt, the structure may show the parent alone.

compound: COc1ccc2c(Cc3c(Cl)cncc3Cl)nncc2c1C#CCN(C)Cc1ccccc1 [Compound 35, dihydrochloride]
pIC50: 8.15
//
compound: CCC(=O)N1Cc2cc(OC)ccc2C(Cc2c(Cl)cncc2Cl)=N1
pIC50: 7.55
//
compound: COc1ccc2c(Cc3c(Cl)cncc3Cl)nnc(-c3ccccc3)c2c1
pIC50: 7.43
//
compound: COC(=O)N1Cc2cc(OC)ccc2C(Cc2c(Cl)cncc2Cl)=N1
pIC50: 7.14
//
compound: COc1ccc2c(Cc3c(Cl)cncc3Cl)nncc2c1C#CCO
pIC50: 7.21
